Cited source for all entries: patent US20170066831A1

So I've got a bunch of binders here, and I need their kon values.
test_system: T1, human ST2L extracellular domain with C-terminal His6 tag (human, UniProt Q01638 19-328)
T1 construct: also called huST2L-ECD; ST2L-ECD
T1 sequence: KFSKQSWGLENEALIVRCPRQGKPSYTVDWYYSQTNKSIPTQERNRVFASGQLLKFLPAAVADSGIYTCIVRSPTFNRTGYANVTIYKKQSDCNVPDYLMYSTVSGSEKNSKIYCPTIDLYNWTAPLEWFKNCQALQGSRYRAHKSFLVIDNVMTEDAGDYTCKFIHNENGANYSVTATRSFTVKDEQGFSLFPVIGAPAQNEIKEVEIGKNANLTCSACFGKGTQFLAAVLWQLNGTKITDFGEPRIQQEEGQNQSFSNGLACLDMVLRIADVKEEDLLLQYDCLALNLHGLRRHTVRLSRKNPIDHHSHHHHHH
experiment_description: ProteOn SPR, mAb captured, ST2L-ECD in solution
Give bare numbers, in M⁻¹ s⁻¹.

The examples below pair each entry with its known result.
INSERT INTO assay_data (binder, measurement) VALUES
  ('STLM201 (antibody, V domains shown, C2494 HFA mAb: VH STLH194 + VL STLL276 (L12)) VH: EVQLVQSGAEVKKPGATVKISCKVSAFNIKDDYMHWVQQAPGKGLEWMGRIDPAIGNTEYAEKFQGRVTITADTSTDTAYMELSSLRSEDTAVYYCATGDFYAMDYWGQGTLVTVSS VL: DIQMTQSPSTLSASVGDRVTITCITNTDIDDVIHWYQQKPGKAPKLLIYEGNTLRPGVPSRFSGSGSGTEFTLTISSLQPDDFATYYCLQSDNMLTFGQGTKLEIK', '1.76e+07'),
  ('STLM199 (antibody, V domains shown, C2494 HFA mAb: VH STLH194 + VL STLL278 (L2)) VH: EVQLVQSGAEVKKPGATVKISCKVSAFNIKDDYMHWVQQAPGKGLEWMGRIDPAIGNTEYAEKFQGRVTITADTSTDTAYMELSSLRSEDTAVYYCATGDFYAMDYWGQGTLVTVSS VL: EIVMTQSPATLSVSPGERATLSCITNTDIDDVIHWYQQKPGQAPRLLIYEGNTLRPGIPARFSGSGSGTEFTLTISSLQSEDFAVYYCLQSDNMLTFGQGTKLEIK', '2.17e+07'),
  ('STLM62 (antibody, human IgG2, V domains shown, Mouse hybridoma C2494 cloned into human IgG2 background (STLM62); also called C2494) VH: EVQLQQSVAELVRPGASVKLSCTASAFNIKDDYMHWVKQRPEQGLEWIGRIDPAIGNTEYAPKFQDKATMTADTSSNTAYLQLSSLTSEDTAVYYCALGDFYAMDYWGQGTSVTVSS VL: ETTVTQSPASLSVATGEKVTIRCITNTDIDDVIHWYQQKPGEPPKLLISEGNTLRPGVPSRFSSSGYGTDFVFTIENTLSEDVADYYCLQSDNMLTFGAGTKLELK', '1.84e+07'),
  ('STLM195 (antibody, V domains shown, C2494 HFA mAb: VH STLH195 + VL STLL272 (O18)) VH: QVQLVQSGAEVKKPGASVKVSCKVSAFNIKDDYMHWVRQAPGKGLEWMGRIDPAIGNTEYAPKFQDRVTMTEDTSTDTAYMELSSLRSEDTAVYYCATGDFYAMDYWGQGTLVTVSS VL: DIQMTQSPSSLSASVGDRVTITCITNTDIDDVIHWYQQKPGKAPKLLIYEGNTLRPGVPSRFSGSGSGTDFTFTISSLQPEDIATYYCLQSDNMLTFGQGTKLEIK', '2.49e+07'),
  ('STLM204 (antibody, V domains shown, C2494 HFA mAb: VH STLH194 + VL STLL273 (A20)) VH: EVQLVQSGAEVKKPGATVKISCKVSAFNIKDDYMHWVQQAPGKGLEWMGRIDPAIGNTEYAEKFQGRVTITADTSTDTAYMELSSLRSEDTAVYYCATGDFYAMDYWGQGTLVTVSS VL: DIQMTQSPSSLSASVGDRVTITCITNTDIDDVIHWYQQKPGKVPKLLIYEGNTLRPGVPSRFSGSGSGTDFTLTISSLQPEDVATYYCLQSDNMLTFGQGTKLEIK', '2.97e+07'),
  ('STLM192 (antibody, V domains shown, C2494 HFA mAb: VH STLH195 + VL STLL275 (L5)) VH: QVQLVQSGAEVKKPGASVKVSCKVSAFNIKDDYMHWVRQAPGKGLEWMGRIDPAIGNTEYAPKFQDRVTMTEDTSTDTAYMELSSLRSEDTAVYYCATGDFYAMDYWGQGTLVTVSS VL: DIQMTQSPSSVSASVGDRVTITCITNTDIDDVIHWYQQKPGKAPKLLIYEGNTLRPGVPSRFSGSGSGTDFTLTISSLQPEDFATYYCLQSDNMLTFGQGTKLEIK', '2.11e+07'),
  ('STLM194 (antibody, V domains shown, C2494 HFA mAb: VH STLH195 + VL STLL273 (A20)) VH: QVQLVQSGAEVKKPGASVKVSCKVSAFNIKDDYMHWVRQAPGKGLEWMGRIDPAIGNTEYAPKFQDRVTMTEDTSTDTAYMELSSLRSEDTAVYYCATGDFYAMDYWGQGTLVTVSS VL: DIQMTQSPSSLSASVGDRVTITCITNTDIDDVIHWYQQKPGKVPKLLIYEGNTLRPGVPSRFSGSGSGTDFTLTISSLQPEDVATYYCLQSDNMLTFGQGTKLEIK', '1e+08'),
  ('STLM205 (antibody, V domains shown, C2494 HFA mAb: VH STLH194 + VL STLL272 (O18)) VH: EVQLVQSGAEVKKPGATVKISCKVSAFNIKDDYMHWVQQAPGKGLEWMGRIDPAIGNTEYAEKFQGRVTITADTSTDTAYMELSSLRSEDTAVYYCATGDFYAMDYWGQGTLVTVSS VL: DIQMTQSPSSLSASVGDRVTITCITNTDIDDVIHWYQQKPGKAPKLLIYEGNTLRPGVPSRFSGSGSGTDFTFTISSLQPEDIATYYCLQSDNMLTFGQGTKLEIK', '1.73e+07'),
  ('STLM193 (antibody, V domains shown, C2494 HFA mAb: VH STLH195 + VL STLL274 (O12)) VH: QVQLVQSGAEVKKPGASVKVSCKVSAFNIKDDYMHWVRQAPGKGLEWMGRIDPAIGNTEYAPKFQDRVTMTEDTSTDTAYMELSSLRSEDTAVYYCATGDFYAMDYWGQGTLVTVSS VL: DIQMTQSPSSLSASVGDRVTITCITNTDIDDVIHWYQQKPGKAPKLLIYEGNTLRPGVPSRFSGSGSGTDFTLTISSLQPEDFATYYCLQSDNMLTFGQGTKLEIK', '4.77e+07');

Below: the item to evaluate.
Query string: Sample STLM187 (antibody, V domains shown, C2494 HFA mAb: VH STLH195 (IGHV1-24*01) + VL STLL280 (O12b)) VH: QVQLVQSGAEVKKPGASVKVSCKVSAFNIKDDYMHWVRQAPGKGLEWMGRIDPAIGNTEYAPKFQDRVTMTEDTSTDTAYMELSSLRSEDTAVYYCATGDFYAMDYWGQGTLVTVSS VL: DIQMTQSPSSLSASVGDRVTITCITNTDIDDVIHWYQQKPGKAPKLLIYEGNTLRPGVPSRFSGSGSGTDFTLTISSLQPEDFATYYCLQSDNLLTFGQGTKLEIK — what was its kon?
Result string: 3.37e+07
